Measured % Ctrl, ABL1(Q252H)-nonphosphorylated values are reported for all entries that follow.
target: kinases (Homo sapiens, UniProt P00519, Q252H); construct: purchased Eurofins/DiscoveRx; host or cells: E. coli BL21-derived host (T7 phage display) for most kinases; HEK-293 for the rest; test: KINOMEscan kinase binding assay (Eurofins/DiscoveRx), % Ctrl; details: 1 μM; ABL1(Q252H)-nonphosphorylated

{"columns": ["Compound", "Test value"],
 "data": [
  ["Cc1cc2c([nH]1)/C=C1\\C(=O)Nc3cc(Cl)c(cc31)OCCOCCN(C)C2=O [Ex. 131]", "0 % Ctrl"]
]}

Task: What is its % Ctrl, ABL1(Q252H)-nonphosphorylated for kinases (Homo sapiens, UniProt P00519, Q252H)? Entry: Cc1cc2c([nH]1)/C=C1\C(=O)Nc3cnc(cc31)-c1cnn(C)c1COCCNC2=O [Ex.123]
Output: 92 % Ctrl

Task: What is its % Ctrl, ABL1(Q252H)-nonphosphorylated for kinases (Homo sapiens, UniProt P00519, Q252H)? Entry: Cc1cc2c([nH]1)/C=C1\C(=O)Nc3ccc(cc31)-c1ccnn1CCNCCNC2=O [Ex. 43]
Output: 55 % Ctrl

Task: What is its % Ctrl, ABL1(Q252H)-nonphosphorylated for kinases (Homo sapiens, UniProt P00519, Q252H)? Entry: Cc1cc2c([nH]1)/C=C1\C(=O)Nc3ccc(cc31)-c1cnn(C)c1COCCN(C)C2=O [Ex. 124]
Output: 0 % Ctrl

====

Measured % Ctrl, KIT(V559D, T670I) values are reported for all entries that follow.
molecular target: kinases (Homo sapiens, UniProt P10721, T670I/V559D); construct: purchased Eurofins/DiscoveRx; host or cells: E. coli BL21-derived host (T7 phage display) for most kinases; HEK-293 for the rest; assay: KINOMEscan kinase binding assay (Eurofins/DiscoveRx), % Ctrl; details: 1 μM; target KIT(V559D, T670I)
Sequence (P10721 26-976 V559D/T670I): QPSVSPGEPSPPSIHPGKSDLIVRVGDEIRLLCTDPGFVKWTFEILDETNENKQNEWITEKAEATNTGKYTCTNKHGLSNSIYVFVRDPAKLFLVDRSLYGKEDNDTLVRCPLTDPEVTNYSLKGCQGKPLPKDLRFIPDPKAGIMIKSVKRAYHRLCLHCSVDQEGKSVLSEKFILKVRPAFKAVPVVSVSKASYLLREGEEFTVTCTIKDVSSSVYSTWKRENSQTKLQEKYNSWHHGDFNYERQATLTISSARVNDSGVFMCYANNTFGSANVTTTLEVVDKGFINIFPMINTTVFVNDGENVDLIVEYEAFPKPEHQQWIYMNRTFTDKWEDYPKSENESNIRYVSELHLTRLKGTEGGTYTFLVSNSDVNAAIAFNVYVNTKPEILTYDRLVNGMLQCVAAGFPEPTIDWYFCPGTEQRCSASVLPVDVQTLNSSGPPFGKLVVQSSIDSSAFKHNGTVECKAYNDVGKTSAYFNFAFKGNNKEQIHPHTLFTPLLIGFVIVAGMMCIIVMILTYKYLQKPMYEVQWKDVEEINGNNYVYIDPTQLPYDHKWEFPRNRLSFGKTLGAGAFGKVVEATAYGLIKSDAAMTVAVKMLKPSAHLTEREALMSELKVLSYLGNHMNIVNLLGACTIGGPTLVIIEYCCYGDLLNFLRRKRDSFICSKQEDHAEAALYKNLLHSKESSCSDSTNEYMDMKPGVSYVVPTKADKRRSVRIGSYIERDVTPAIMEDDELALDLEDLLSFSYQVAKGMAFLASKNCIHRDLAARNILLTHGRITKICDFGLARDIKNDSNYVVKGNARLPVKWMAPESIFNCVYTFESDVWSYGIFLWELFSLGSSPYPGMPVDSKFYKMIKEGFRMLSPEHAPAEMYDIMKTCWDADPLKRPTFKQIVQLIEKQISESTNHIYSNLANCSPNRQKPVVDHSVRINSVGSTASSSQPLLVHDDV
Report only the number, with the unit % Ctrl understood.

Reference set (3 entries):
{"columns": ["Chemical string", "% Ctrl, KIT(V559D, T670I) (% Ctrl)"],
 "data": [
  ["Cc1cc2c([nH]1)/C=C1\\C(=O)Nc3cc(Cl)c(cc31)SCCOCCN(C)C2=O", 1.6],
  ["Cc1cc2c([nH]1)/C=C1\\C(=O)Nc3ccc(cc31)-c1cnn(C)c1OCCCN(C)C2=O", 65],
  ["Cc1cc2c([nH]1)/C=C1\\C(=O)Nc3ccc(cc31)-c1c(noc1C(C)C)COCCN(C)C2=O", 95]
]}

Task: For the molecule shown here, Cc1cc2c([nH]1)/C=C1\C(=O)Nc3cnc(cc31)-c1cnn(C)c1CN(C)CCN(C)C2=O , give the reported % Ctrl, KIT(V559D, T670I).
Output: 48

Task: For the molecule shown here, CN1CCOc2cc3c(cc2Cl)NC(=O)/C3=C\c2[nH]ccc2C(=O)N(C)CC1 , give the reported % Ctrl, KIT(V559D, T670I).
Output: 2.4

====

target: kinases (Homo sapiens, UniProt P10721, D816H); construct: purchased Eurofins/DiscoveRx; host or cells: E. coli BL21-derived host (T7 phage display) for most kinases; HEK-293 for the rest; assay: KINOMEscan kinase binding assay (Eurofins/DiscoveRx), % Ctrl; settings: target KIT(D816H); 1 μM
Sequence (P10721 26-976 D816H): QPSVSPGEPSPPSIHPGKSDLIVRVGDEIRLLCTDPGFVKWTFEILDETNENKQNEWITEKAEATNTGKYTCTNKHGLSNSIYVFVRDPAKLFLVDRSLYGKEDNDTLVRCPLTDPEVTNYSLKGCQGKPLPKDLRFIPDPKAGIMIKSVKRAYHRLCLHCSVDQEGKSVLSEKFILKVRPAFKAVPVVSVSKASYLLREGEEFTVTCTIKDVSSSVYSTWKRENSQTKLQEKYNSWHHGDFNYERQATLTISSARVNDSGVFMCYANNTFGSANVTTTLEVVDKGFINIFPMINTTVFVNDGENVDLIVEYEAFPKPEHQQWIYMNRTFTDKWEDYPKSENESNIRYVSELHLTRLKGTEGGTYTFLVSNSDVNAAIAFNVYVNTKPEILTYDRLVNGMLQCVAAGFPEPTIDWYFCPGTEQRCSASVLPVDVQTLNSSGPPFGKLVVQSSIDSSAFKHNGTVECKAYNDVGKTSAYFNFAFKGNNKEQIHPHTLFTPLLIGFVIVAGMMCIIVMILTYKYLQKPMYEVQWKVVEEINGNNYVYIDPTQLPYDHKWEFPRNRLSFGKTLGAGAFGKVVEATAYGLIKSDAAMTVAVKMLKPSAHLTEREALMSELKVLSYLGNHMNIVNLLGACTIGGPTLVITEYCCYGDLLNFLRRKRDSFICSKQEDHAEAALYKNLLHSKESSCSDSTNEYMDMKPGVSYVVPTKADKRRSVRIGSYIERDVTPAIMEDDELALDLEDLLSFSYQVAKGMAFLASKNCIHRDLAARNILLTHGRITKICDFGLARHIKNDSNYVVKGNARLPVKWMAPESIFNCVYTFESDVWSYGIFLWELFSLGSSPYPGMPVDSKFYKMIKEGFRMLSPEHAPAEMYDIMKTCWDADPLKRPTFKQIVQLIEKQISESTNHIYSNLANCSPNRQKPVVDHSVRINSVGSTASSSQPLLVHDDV
Please enter y where % Ctrl, KIT(D816H) is greater than or equal to 60 % Ctrl, and n where it is lower.

# count of solved cases: 3
{"columns": ["Molecule", "Discrete label"],
 "data": [
  ["Cc1cc2c([nH]1)/C=C1\\C(=O)Nc3ccc(cc31)-c1c(noc1C)CNCCN(C)C2=O [Ex. 139]", "y"],
  ["Cc1cc2c([nH]1)/C=C1\\C(=O)Nc3cnc(cc31)-c1cn[nH]c1CNCCN(C)C2=O [Ex. 55]", "n"],
  ["Cc1cc2c([nH]1)/C=C1\\C(=O)Nc3ccc(cc31)-c1c(C)nn(C)c1COCCN(C)C2=O [Ex. 146]", "y"]
]}

Task: Form field: % Ctrl, KIT(D816H) at least 60 % Ctrl? Entry: CN1CCSCCOc2cc3c(cc2Cl)NC(=O)/C3=C\c2[nH]ccc2C1=O [Ex. 153]
Output: n

Task: Form field: % Ctrl, KIT(D816H) at least 60 % Ctrl? Entry: Cc1cc2c([nH]1)/C=C1\C(=O)Nc3cc(Cl)c(cc31)OCCO[C@@H](C(=O)N1CCN(C)CC1)CN(C)C2=O [Ex. 138]
Output: y

Task: Form field: % Ctrl, KIT(D816H) at least 60 % Ctrl? Entry: Cc1nn(C)c2c1-c1ccc3c(c1)/C(=C/c1[nH]ccc1C(=O)N(C)CCCO2)C(=O)N3 [Ex. 150]
Output: y

====

molecular target: kinases (Homo sapiens, UniProt P00519, H396P); construct: purchased Eurofins/DiscoveRx; host or cells: E. coli BL21-derived host (T7 phage display) for most kinases; HEK-293 for the rest; assay: KINOMEscan kinase binding assay (Eurofins/DiscoveRx), % Ctrl; details: target ABL1(H396P)-nonphosphorylated; 1 μM
Reported property: % Ctrl, ABL1(H396P)-nonphosphorylated (% Ctrl)
Report only the number, with the unit % Ctrl understood.

Reference set (4 entries):
{"columns": ["Compound", "Test value"],
 "data": [
  ["Cc1cc2c([nH]1)/C=C1\\C(=O)Nc3cc(Cl)c(cc31)OCCO[C@@H](C(=O)N1CCN(C)CC1)CN(C)C2=O [Ex. 138]", 69],
  ["CN1CCSCCOc2cc3c(cc2Cl)NC(=O)/C3=C\\c2[nH]ccc2C1=O [Ex. 153]", 0.8],
  ["Cc1cc2c([nH]1)/C=C1\\C(=O)Nc3cnc(cc31)-c1cn[nH]c1CNCCN(C)C2=O [Ex. 55]", 0.8],
  ["Cc1cc2c([nH]1)/C=C1\\C(=O)Nc3ccc(cc31)-c1c(noc1C)CNCCN(C)C2=O [Ex. 139]", 2]
]}

Task: What is its % Ctrl, ABL1(H396P)-nonphosphorylated for kinases (Homo sapiens, UniProt P00519, H396P)? Entry: Cc1nn(C)c2c1-c1ccc3c(c1)/C(=C/c1[nH]ccc1C(=O)N(C)CCCO2)C(=O)N3 [Ex. 150]
Output: 100

Task: What is its % Ctrl, ABL1(H396P)-nonphosphorylated for kinases (Homo sapiens, UniProt P00519, H396P)? Entry: Cc1cc2c([nH]1)/C=C1\C(=O)Nc3ccc(cc31)-c1c(C)nn(C)c1COCCN(C)C2=O [Ex. 146]
Output: 50

Task: What is its % Ctrl, ABL1(H396P)-nonphosphorylated for kinases (Homo sapiens, UniProt P00519, H396P)? Entry: CN1CCOCCOc2cc3c(cc2Cl)NC(=O)/C3=C\c2[nH]ccc2C1=O [Ex. 143]
Output: 1.6

====

biological target: kinases (Homo sapiens, UniProt P00533, L858R/T790M); construct: purchased Eurofins/DiscoveRx; host or cells: E. coli BL21-derived host (T7 phage display) for most kinases; HEK-293 for the rest; assay: KINOMEscan kinase binding assay (Eurofins/DiscoveRx), % Ctrl; conditions: 1 μM; target EGFR(L858R, T790M)
Reported property: % Ctrl, EGFR(L858R, T790M) (% Ctrl)
Report only the number, with the unit % Ctrl understood.

Reference set (4 entries):
{"columns": ["Chemical string", "% Ctrl, EGFR(L858R, T790M) / % Ctrl"],
 "data": [
  ["Cc1cc2c([nH]1)/C=C1\\C(=O)Nc3cc(Cl)c(cc31)SCCOCCN(C)C2=O", 37],
  ["Cc1cc2c([nH]1)/C=C1\\C(=O)Nc3ccc(cc31)-c1cnn(C)c1OCCCN(C)C2=O", 8.1],
  ["CN1CCOc2cc3c(cc2Cl)NC(=O)/C3=C\\c2[nH]ccc2C(=O)N(C)CC1", 80],
  ["Cc1cc2c([nH]1)/C=C1\\C(=O)Nc3ccc(cc31)-c1c(noc1C(C)C)COCCN(C)C2=O", 96]
]}

Task: For the compound shown here, Cc1cc2c([nH]1)/C=C1\C(=O)Nc3cnc(cc31)-c1cnn(C)c1CN(C)CCN(C)C2=O , give the reported % Ctrl, EGFR(L858R, T790M).
Output: 3.3

====

target: kinases (Homo sapiens, UniProt P00519, M351T); construct: purchased Eurofins/DiscoveRx; host or cells: E. coli BL21-derived host (T7 phage display) for most kinases; HEK-293 for the rest; experiment: KINOMEscan kinase binding assay (Eurofins/DiscoveRx), % Ctrl; conditions: 1 μM; ABL1(M351T)-phosphorylated
Reported property: % Ctrl, ABL1(M351T)-phosphorylated (% Ctrl)
Report only the number, with the unit % Ctrl understood.

Reference set (5 entries):
{"columns": ["Chemical string", "Target system", "Result unit", "% Ctrl, ABL1(M351T)-phosphorylated"],
 "data": [
  ["Cc1cc2c([nH]1)/C=C1\\C(=O)Nc3cnc(cc31)-c1cnn(C)c1COCCNC2=O", "kinases (Homo sapiens, UniProt P00519, M351T)", "% Ctrl", 100],
  ["Cc1cc2c([nH]1)/C=C1\\C(=O)Nc3ccc(cc31)-c1c(noc1C)COCCN(C)C2=O", "kinases (Homo sapiens, UniProt P00519, M351T)", "% Ctrl", 39],
  ["Cc1cc2c([nH]1)/C=C1\\C(=O)Nc3ccc(cc31)-c1cnn(C)c1COCCN(C)C2=O", "kinases (Homo sapiens, UniProt P00519, M351T)", "% Ctrl", 0.05],
  ["Cc1cc2c([nH]1)/C=C1\\C(=O)Nc3ccc(cc31)-c1cnn(C)c1CNCCN(C)C2=O", "kinases (Homo sapiens, UniProt P00519, M351T)", "% Ctrl", 0.1],
  ["Cc1cc2c([nH]1)/C=C1\\C(=O)Nc3ccc(cc31)O[C@@H](C)COCCN(C)C2=O", "kinases (Homo sapiens, UniProt P00519, M351T)", "% Ctrl", 54]
]}

Task: What is its % Ctrl, ABL1(M351T)-phosphorylated for kinases (Homo sapiens, UniProt P00519, M351T)? Entry: Cc1cc2c([nH]1)/C=C1\C(=O)Nc3cc(Cl)c(cc31)OCCO[C@@H](C(=O)N(C)C)CN(C)C2=O
Output: 51

Task: What is its % Ctrl, ABL1(M351T)-phosphorylated for kinases (Homo sapiens, UniProt P00519, M351T)? Entry: Cc1cc2c([nH]1)/C=C1\C(=O)Nc3cnc(nc31)N(C)CCCOCCN(C)C2=O
Output: 100

Task: What is its % Ctrl, ABL1(M351T)-phosphorylated for kinases (Homo sapiens, UniProt P00519, M351T)? Entry: Cc1cc2c([nH]1)/C=C1\C(=O)Nc3cc(Cl)c(cc31)OCCO[C@@H](C(=O)NC1CNC1)CN(C)C2=O
Output: 58

Task: What is its % Ctrl, ABL1(M351T)-phosphorylated for kinases (Homo sapiens, UniProt P00519, M351T)? Entry: Cc1cc2c([nH]1)/C=C1\C(=O)Nc3cc(Cl)c(cc31)OCCO[C@@H](C(=O)NC1CCNCC1)CN(C)C2=O
Output: 25

Task: What is its % Ctrl, ABL1(M351T)-phosphorylated for kinases (Homo sapiens, UniProt P00519, M351T)? Entry: Cc1cc2c([nH]1)/C=C1\C(=O)Nc3ccc(cc31)OCCOCCN(C)C2=O
Output: 8.5

All values here come from patent US20230257396A1.
